System: Mus musculus
EXPERIMENT NOTES: Toxicity in mouse L1210 cells implanted CDF1 mouse assessed as average weight gain at 0.4 mg/kg, ip qd for 1 to 5 days
Assay type: organism-based
Parameters: dose 0.4 mg/kg, route intraperitoneal
CONDITION SUMMARY: in vivo
QUANTITY MEASURED: weight gain

Quick note, weight gain for CC[C@@]1(O)C[C@H](O[C@H]2C[C@H](NC)[C@H](O[C@H]3C[C@H](O)[C@H](O)[C@H](C)O3)[C@H](C)O2)c2c(cc3c(c2O)C(=O)c2c(O)ccc(O)c2C3=O)[C@H]1C(=O)OC [SCHAUNARDIMYCIN] landed at 2.6 g

weight gain measured on CC[C@@]1(O)C[C@H](O[C@H]2C[C@H](N(C)C)[C@H](O[C@H]3C[C@H](O)[C@H](O)[C@H](C)O3)[C@H](C)O2)c2c(cc3c(c2O)C(=O)c2c(O)ccc(O)c2C3=O)[C@H]1C(=O)OC [MUSETTAMYCIN] = 2.3 g

Origin of the recorded values: ChEMBL document CHEMBL1148995
